tested on: MRSA; assay: Antimicrobial plus BTA against recent clinical MRSA isolates (Table 7); format: cell-based, Staphylococcus aureus; details: EMRSA-17; +BTA 0.1%
As shown below, each of these molecules has a reported Oxacillin (antimicrobial plus BTA; quantity not named, MIC implied) value.
The answer is to be given in µg/mL; state only the numeric part.

Some molecules with recorded Oxacillin (antimicrobial plus BTA; quantity not named, MIC implied):
# COMPOUND STRUCTURE STRING, ASSAYED TARGET, VALUE UNITS, DATA VALUE
measured = [
    ("NCC(=O)OCc1ccccc1", "MRSA", "µg/mL", 2),
    ("O=C(O)CNC(=O)c1ccccc1", "MRSA", "µg/mL", 4),
    ("Nc1ccc(C(=O)NCC(=O)O)cc1", "MRSA", "µg/mL", 1),
]

Now for another entry.
Query string: Could you share which Oxacillin (antimicrobial plus BTA; quantity not named, MIC implied) value was measured for CCOC(=O)CNC(=O)CN ?
Result string: 2

---

system: MRSA; assay: Antimicrobial plus BTA against recent clinical MRSA isolates (Table 7); assay type: cell-based, Staphylococcus aureus; conditions: EMRSA-17; +BTA 0.1%
# Cephalexin (antimicrobial plus BTA; quantity not named, MIC implied) per record follows
Respond numerically; units are µg/mL and should not be typed.

// below: answered molecules
# MOLECULE, DATA VALUE
data = [
    ("O=C(O)CNC(=O)c1ccccc1 [HA, Hippuric acid (N-Benzoylglycine)]", 8),
    ("CCOC(=O)CNC(=O)CN [GGEE, Glycylglycine ethyl ester]", 2),
]

Query string: What value of Cephalexin (antimicrobial plus BTA; quantity not named, MIC implied) has been recorded for this entry: NCC(=O)OCc1ccccc1 [GBE, Glycine Benzyl Ester]
Result string: 2

Query string: Could you do the same for Nc1ccc(C(=O)NCC(=O)O)cc1 [Amino-HA, P-Amino Hippuric acid] , please?
Result string: 4

---

System: MRSA
Test: Antimicrobial plus BTA against recent clinical MRSA isolates (Table 7)
Type: cell-based, Staphylococcus aureus
Conditions: EMRSA-16; +BTA 0.01%
Excerpt: The four clinical isolates were isolated from patients during the first three months of 2003. […] An intermediate MRSA has been included, as methicillin-resistance has been achieved by means other than production of PBP2a.
Here the recorded Oxacillin (antimicrobial plus BTA; quantity not named, MIC implied) is given for each entry.
Express your answer in µg/mL, writing the number without its unit.

Guide cases for Oxacillin (antimicrobial plus BTA; quantity not named, MIC implied), answers given:
# MOLECULE, DATA VALUE
rows = [
    ("Nc1ccc(C(=O)NCC(=O)O)cc1", 3),
    ("CCOC(=O)CNC(=O)CN", 1.5),
    ("O=C(O)CNC(=O)c1ccccc1", 6),
    ("NCC(=O)OCc1ccccc1", 4),
]

Query string: # input molecule: C#CCC(N)C(=O)O.C#CCC(N)C(=O)O (centres unmarked) ; wanted: its Oxacillin (antimicrobial plus BTA; quantity not named, MIC implied)
Result string: 1.5

---

Entries and their measured Cephalexin (antimicrobial plus BTA; quantity not named, MIC implied) follow.
test system: MRSA; assay: Antimicrobial plus BTA against recent clinical MRSA isolates (Table 7); format: cell-based, Staphylococcus aureus; settings: I-MRSA; +BTA 0.1%
Report only the number, with the unit µg/mL understood.

Guide cases for Cephalexin (antimicrobial plus BTA; quantity not named, MIC implied), answers given:
# COMPOUND STRUCTURE STRING, DATA VALUE
data = [
    ("Nc1ccc(C(=O)NCC(=O)O)cc1", 0.064),
    ("O=C(O)CNC(=O)c1ccccc1", 2),
    ("NCC(=O)OCc1ccccc1", 1),
]

Please look at the following molecule next.
Query string: Cephalexin (antimicrobial plus BTA; quantity not named, MIC implied) for CCOC(=O)CNC(=O)CN ?
Result string: 0.75

---

Oxacillin (antimicrobial plus BTA; quantity not named, MIC implied) overview
test system: MRSA; assay: Antimicrobial plus BTA against recent clinical MRSA isolates (Table 7); assay type: cell-based, Staphylococcus aureus; conditions: EMRSA-16; +BTA 0.1%
Field format: number, assumed µg/mL, no unit text.

Below: 3 molecules and their reported Oxacillin (antimicrobial plus BTA; quantity not named, MIC implied).
# MOLECULE, DATA VALUE
measured = [
    ("NCC(=O)OCc1ccccc1 [GBE, Glycine Benzyl Ester]", 2),
    ("CCOC(=O)CNC(=O)CN [GGEE, Glycylglycine ethyl ester]", 1),
    ("O=C(O)CNC(=O)c1ccccc1 [HA, Hippuric acid (N-Benzoylglycine)]", 4),
]

# input for lookup
Query string: Fill in the recorded Oxacillin (antimicrobial plus BTA; quantity not named, MIC implied) for this molecule, with MRSA as test system: Nc1ccc(C(=O)NCC(=O)O)cc1 [Amino-HA, P-Amino Hippuric acid]
Result string: 0.75
